Source: patent US5206239A

- Test system: α1
- ASSAY_PROTOCOL: Anti-α1 action: inhibition of norepinephrine-induced tonic contraction of isolated guinea pig thoracic aorta
- Parameters: species or system guinea pig (Hartley, male)
- CONDITION_CONTEXT: 10^-8 M test drug, tonic contraction induced by 10^-5 M norepinephrine = 100%, 0.01 µM
MEASURED_METRIC: Anti α1 action (percent contraction, % of Control)

[
  {
    "MOLECULE": "CN1CCC(=NOC(=O)c2ccccc2)c2ccn(CCCCN3CCC(C(=O)c4ccc(F)cc4)CC3)c2C1=O [Compound No. 92]",
    "ASSAYED_TARGET": "α1",
    "OBSERVED_MEASUREMENT": "49.3 % of Control"
  },
  {
    "MOLECULE": "O=C1CCN(Cc2ccccc2)C(=O)c2c1ccn2CCCCN1CCC(c2ccccc2)CC1 [Compound No. 48]",
    "ASSAYED_TARGET": "α1",
    "OBSERVED_MEASUREMENT": "77.4 % of Control"
  },
  {
    "MOLECULE": "CN1CCC(=O)c2ccn(CCCCN3CCC(C(=O)c4ccc(F)cc4)CC3)c2C1=O [Compound No. 60]",
    "ASSAYED_TARGET": "α1",
    "OBSERVED_MEASUREMENT": "43.9 % of Control"
  },
  {
    "MOLECULE": "CN1CCC(=NO)c2ccn(CCCCN3CCC(C(=O)c4ccc(F)cc4)CC3)c2C1=O.Cc1ccc(S(=O)(=O)O)cc1 [Compound No. 62]",
    "ASSAYED_TARGET": "α1",
    "OBSERVED_MEASUREMENT": "26.8 % of Control"
  },
  {
    "MOLECULE": "CN1CCC(=O)c2ccn(CCCCN3CCC(C(O)(c4ccc(F)cc4)c4ccc(F)cc4)CC3)c2C1=O [Compound No. 54]",
    "ASSAYED_TARGET": "α1",
    "OBSERVED_MEASUREMENT": "90.4 % of Control"
  }
]
